Entries and their pIC50
- targetOfAssay: DRB1*0301
- experimentDescription: binding to purified HLA
pIC50: −log10 of the molar value.
propertyMeasured: pIC50

AAAYFVAAWTLHAAA [Y4.H12]    6.92
AAAKFVAAWTLKAAA [SEQ ID NO: 4]    6.68
AAAYFVAANTLHAAA [Y4.N9.H12]    6.89
AAAYFVAAFTLHAAA [Y4.F9.H12]    6.90
AAAHFVAAWTLHAAA [H4.H12]    6.70
AAAFFVAANTLHAAA [F4.N9.H12]    6.54
AAAFFVAANTLKADA [F4.N9.D14]    6.85
AAAWFVAANTLHAAA [W4.N9.H12]    6.76
